# Tested on: P. aeruginosa ATCC27853 LMG16217
# assay summary: Anti-bacterial activity, Bioscreen C growth curve: P. aeruginosa
# Format: cell-based, Pseudomonas aeruginosa
# measurement context: Pseudomonas aeruginosa; 25 PPM; 35° C., 16 hours; negative control = 100; read-out: % of growth at 25 PPM compared to the negative control, P. aeruginosa ATCC27853 LMG16217
reported property: activity at 25 ppm (%)
Hi! Could you send only the number? It should be in %, unit omitted.

Here are 3 compounds together with their reported answers.
activity at 25 ppm recorded for this compound, CO[C@@H]1[C@@H](OC)[C@H](Sc2ccccc2)O[C@@H]2COC(=O)CC/C=C/CCC(=O)O[C@@H]12 , is 92.2

activity at 25 ppm recorded for this compound, CO[C@@H]1[C@@H](OC)[C@H](Sc2ccccc2)O[C@@H]2COCCC/C=C/CCCO[C@@H]12 , is 91.6

activity at 25 ppm recorded for this compound, CO[C@@H]1[C@@H](OC)[C@H](Cc2ccccc2)O[C@@H]2COC(=O)CCCCCCCCC=CCCCCCCCCC(=O)O[C@@H]12 [KPE00001031E] , is 89.6

Further cases:
activity at 25 ppm recorded for this compound, CO[C@@H]1[C@@H](OC)[C@H](Cc2ccccc2)O[C@@H]2COC(=O)CC/C=C/CCC(=O)O[C@@H]12 , is 90.9
